These entries and their values trace back to patent US9062043B2.

Test system: HCT-116 human colorectal carcinoma cells
Assay: Cell proliferation assay, Alamar Blue, HCT-116;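 further: cells exposed to compound for about 4 days, then Alamar Blue added and fluorescence read after about 4 h, medium-only wells as control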
Assay type: cell-based
Details: HCT-116, Table 16, second HCT-116 column
A collection of compounds and their measured IC50

Examples with answers:
{"structure as smiles": "O=C(O)c1ccc2c(c1)nc(Nc1cccc(F)c1)c1ncsc12", "quantity name": "IC50", "data value": "15 µM"}
{"structure as smiles": "Cc1cc(CNC(=O)c2cccc(Nc3nc4cc(-c5nnn[nH]5)ccc4c4sccc34)c2)no1", "quantity name": "IC50", "data value": "> 10 µM"}
{"structure as smiles": "O=C(O)c1ccc2c(c1)nc(Nc1ccc3[nH]ccc3c1)c1ccsc12", "quantity name": "IC50", "data value": "> 10 µM"}
{"structure as smiles": "NS(=O)(=O)c1cccc(Nc2nc3cc(C(=O)O)ccc3c3sccc23)c1", "quantity name": "IC50", "data value": "> 10 µM"}

The compound listed as O=C(O)c1ccc2c(c1)nc(Nc1cccc(Br)c1)c1ccsc12 shows IC50 equal to > 10 µM
